# tgt: Mitogen-activated protein kinase 14 (Homo sapiens)
# Sequence (Q16539 whole entry): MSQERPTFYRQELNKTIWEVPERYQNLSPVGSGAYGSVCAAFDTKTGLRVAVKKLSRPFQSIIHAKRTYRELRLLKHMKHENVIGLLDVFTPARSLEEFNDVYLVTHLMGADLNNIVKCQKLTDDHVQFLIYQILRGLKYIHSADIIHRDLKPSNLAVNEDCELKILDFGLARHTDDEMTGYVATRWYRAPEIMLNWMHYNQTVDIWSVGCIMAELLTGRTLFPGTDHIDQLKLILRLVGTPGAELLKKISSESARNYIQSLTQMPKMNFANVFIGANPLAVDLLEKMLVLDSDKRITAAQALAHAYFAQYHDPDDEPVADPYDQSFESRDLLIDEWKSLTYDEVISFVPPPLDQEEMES
# assay info: Inhibition of p38alpha
pIC50: −log10 of the molar value.
endpoint name: pIC50

The following compounds have reported results that may help.
Exercise: For the compound COC(=O)CCCSc1nc(-c2ccc(F)cc2)c(-c2ccncc2)[nH]1 , give its reported pIC50.
Key: 6.31

Exercise: For the compound CCC(C)Nc1cc(-c2[nH]c(SCC(O)CO)nc2-c2ccc(F)cc2)ccn1 (stereo not given) , give its reported pIC50.
Key: 8.30

Exercise: For the compound CC(C)C(C)Nc1cc(-c2[nH]c(SC[C@H](O)CO)nc2-c2ccc(F)cc2)ccn1 (stereo not given in full) , give its reported pIC50.
Key: 7.74

[P] CC(C)Nc1cc(-c2[nH]c(SC[C@@H](O)CO)nc2-c2ccc(F)cc2)ccn1
[Q] OCC(O)CSc1nc(-c2ccc(F)cc2)c(-c2ccncc2)[nH]1 (stereo not given)
Exercise: Field: lower pIC50 | Options: P / Q Your answer should be the label of the entry you select.
Key: Q

* * *

# tgt: Mitogen-activated protein kinase 14 (Homo sapiens)
# assay info: Inhibition of p38alpha
endpoint name: IC50 (nM)

The following compounds have reported results that may help.
Exercise: For the compound CCOC(=O)C(Sc1nc(-c2ccc(F)cc2)c(-c2ccncc2)[nH]1)C(=O)OCC , give its reported IC50.
Key: 2240

Exercise: For the compound Cn1c(SCC(O)CO)nc(-c2ccc(F)cc2)c1-c1ccncc1 (stereo not given) , give its reported IC50.
Key: 1220

Exercise: For the compound COC(=O)CSc1nc(-c2ccc(F)cc2)c(-c2ccnc(NC(C)C(C)C)c2)[nH]1 (stereo not given) , give its reported IC50.
Key: 19

Exercise: For the compound OCCCSc1nc(-c2ccc(F)cc2)c(-c2ccncc2)[nH]1 , give its reported IC50.
Key: 215

Exercise: For the compound OCCSc1nc(-c2ccc(F)cc2)c(-c2ccncc2)[nH]1 , give its reported IC50.
Key: 184

Exercise: For the compound OCC(O)CSc1nc(-c2ccc(F)cc2)c(-c2ccnc(NC3CCOCC3)c2)[nH]1 (stereo not given) , give its reported IC50.
Key: 3

Exercise: For the compound OCCSc1nc(-c2ccc(F)cc2)c(-c2ccnc(NC3CCOCC3)c2)[nH]1 , give its reported IC50.
Key: 2

Exercise: For the compound CC(C)C(C)Nc1cc(-c2[nH]c(SCCO)nc2-c2ccc(F)cc2)ccn1 (stereo not given) , give its reported IC50.
Key: 11

Exercise: For the compound CC(C)C(C)Nc1cc(-c2[nH]c(SCCCO)nc2-c2ccc(F)cc2)ccn1 (stereo not given) , give its reported IC50.
Key: 12

Exercise: For the compound CC(Nc1cc(-c2[nH]c(SCC(=O)O)nc2-c2ccc(F)cc2)ccn1)c1ccccc1 (stereo not given) , give its reported IC50.
Key: 37

[A] COC(=O)CSc1nc(-c2ccc(F)cc2)c(-c2ccnc(NC(C)c3ccccc3)c2)[nH]1 (stereo not given)
[B] CC(C)C(C)Nc1cc(-c2[nH]c(SCC(O)CO)nc2-c2ccc(F)cc2)ccn1 (stereo not given)
[C] COC(=O)CSc1nc(-c2ccc(F)cc2)c(-c2ccncc2)[nH]1
Exercise: Arrange the 3 entries by IC50 so the values rise. Give the labels in the order specified.
Key: B, A, C

[P] CC(C)Nc1cc(-c2[nH]c(SCC(O)CO)nc2-c2ccc(F)cc2)ccn1 (stereo not given)
[Q] CC(Nc1cc(-c2[nH]c(SCC(O)CO)nc2-c2ccc(F)cc2)ccn1)c1ccccc1 (stereo not given)
[R] CNc1cc(-c2[nH]c(SCC(O)CO)nc2-c2ccc(F)cc2)ccn1 (stereo not given)
Exercise: Arrange the 3 entries by IC50 so the values rise. Give the labels in the order specified.
Key: P, Q, R

[P] COC(=O)CSc1nc(-c2ccc(F)cc2)c(-c2ccnc(NC(C)C)c2)[nH]1
[Q] CCNc1cc(-c2[nH]c(SCC(O)CO)nc2-c2ccc(F)cc2)ccn1 (stereo not given)
Exercise: Which numeric IC50 is bigger, that of P or that of Q ? Your answer should be the label of the entry you select.
Key: Q

[I] CC(C)Nc1cc(-c2[nH]c(SC[C@H](O)CO)nc2-c2ccc(F)cc2)ccn1
[II] CC(C)C(C)Nc1cc(-c2[nH]c(SC[C@@H](O)CO)nc2-c2ccc(F)cc2)ccn1 (stereo not given in full)
Exercise: Which numeric IC50 is bigger, that of I or that of II ? Your answer should be the label of the entry you select.
Key: II
